System: K. pneumoniae (ATCC10031)
Assay: 50% growth inhibitory concentration (IC50) determination assay
Type: cell-based
Conditions: Klebsiella pneumoniae, Iso-Sensitest broth, 0.098 = detection limit
Description: Stock compounds in DMSO were serially two-fold diluted (range from 50 to 0.097 μM final concentration) in 384 wells microtiter plates and inoculated with 49 μL the bacterial suspension in Iso-Sensitest broth medium to have a final cell concentration of ˜5×10^5 CFU/mL in a final volume/well of 50 μL/well. Microtiter plates were incubated at 35±2° C. Bacterial cell growth was determined with the measurement of optical density at λ=600 nm each 20 minutes over a time course of 16 h. […]
Reported IC50 values for a set of molecules

Worked cases, answers included:
> print(dat)
                                   molecule                measured.on  endpoint.value
1  CCNn1cc(C(=O)O)c(=O)c2cc(-c3cnc4[nH]c5c(NC)cc(F)c(F)c5c4c3N3CC[C@@H](N(C)C)C3)cnc21  K. pneumoniae (ATCC10031)      < 0.098 µM
2  CNc1cc(F)c(F)c2c1[nH]c1ncc(-c3cnc4c(c3)c(=O)c(C(=O)O)cn4C3CCNC3)c(N(C)C)c12 (stereo not shown)  K. pneumoniae (ATCC10031)      < 0.098 µM
3  CCN1CCCC1Cn1cc(C(=O)O)c(=O)c2cc(-c3cnc4[nH]c5c(NC)cc(F)c(F)c5c4c3N(C)C)cnc21 (stereo not shown)  K. pneumoniae (ATCC10031)        0.101 µM
4  CNc1cc(F)c(F)c2c1[nH]c1ncc(-c3cnc4c(c3)c(=O)c(C(=O)O)cn4C)c(N3CC4[C@H](CC[C@H]4CN(C)C)C3)c12 (stereo partly shown)  K. pneumoniae (ATCC10031)      < 0.098 µM
5  CNc1cc(F)c(F)c2c1[nH]c1ncc(-c3cnc4c(c3)c(=O)c(C(=O)O)cn4C)c(N3CC[C@H]4CN(C)C4C3)c12 (stereo partly shown)  K. pneumoniae (ATCC10031)      < 0.098 µM
6  CNc1cc(F)c(F)c2c1[nH]c1ncc(-c3cnc4c(c3)c(=O)c(C(=O)O)cn4C)c(N3C[C@H](OC)[C@@H](N(C)C)C3)c12  K. pneumoniae (ATCC10031)      < 0.098 µM

For CCNc1cc(F)c(F)c2c1[nH]c1ncc(-c3cnc4c(c3)c(=O)c(C(=O)O)cn4C3CCNC3)c(N(C)C)c12 (stereo not shown) , write its IC50. < 0.098 µM

Let me know recorded IC50 for CNc1cc(F)c(F)c2c1[nH]c1ncc(-c3cnc4c(c3)c(=O)c(C(=O)O)cn4NC)c(N(C)C)c12 , thanks. < 0.098 µM

For CNc1cc(F)c(F)c2c1[nH]c1ncc(-c3cnc4c(c3)c(=O)c(C(=O)O)cn4C)c(N3C[C@H]4CCN(C)[C@H]4C3)c12 [Example 3.08A] , write its IC50. < 0.098 µM

# return recorded IC50 for entry CNc1cc(F)c(F)c2c1[nH]c1ncc(-c3cnc4c(c3)c(=O)c(C(=O)O)cn4NC)c(N3CC4[C@H](CCN4C)C3)c12 (stereo partly shown) < 0.098 µM

Check the records and state IC50 for CNc1cc(F)c(F)c2c1[nH]c1ncc(-c3cnc4c(c3)c(=O)c(C(=O)O)cn4C)c(N3CCC4(CCN(C)C4)C3)c12 (stereo not shown) < 0.098 µM

Read off the recorded IC50 for CNc1cc(F)c(F)c2c1[nH]c1ncc(-c3cnc4c(c3)c(=O)c(C(=O)O)cn4C3CC3)c(N(C)C)c12 0.282 µM

Please list IC50 recorded for the molecule CNc1cc(F)c(F)c2c1[nH]c1ncc(-c3cnc4c(c3)c(=O)c(C(=O)O)cn4C)c(N3C[C@H](C)[C@@H](O)C3)c12 < 0.098 µM
